# Tested on: RARa:RXR (NR concentration 270 nM, RXRa partner concentration 90 nM)
# procedureText: PBM binding z-score (relative to random genomic background probes); higher = stronger binding; sequences stand for … in GC…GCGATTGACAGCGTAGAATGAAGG
observedProperty: PBM binding z-score
In your answer, state the number alone without any accompanying words.

[in] Return value of PBM binding z-score for input CGGACTAGGTCATCCAGGACAGTGAATACATTGA , no commentary.
[out] 1.89

[in] Return value of PBM binding z-score for input CTCTAAAGGTCGTGCTCAGGTGAGTATACCAAAC , no commentary.
[out] 4.14

[in] Return value of PBM binding z-score for input ATCGAAAGGTCGGAGGTGAGTATACCCACCCGAA , no commentary.
[out] 2.79

[in] Return value of PBM binding z-score for input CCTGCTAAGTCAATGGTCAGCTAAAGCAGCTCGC , no commentary.
[out] -0.153

[in] Return value of PBM binding z-score for input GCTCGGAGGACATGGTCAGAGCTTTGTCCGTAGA , no commentary.
[out] -0.833

[in] Return value of PBM binding z-score for input GTTGCTAGGTCAACTGATGGTCAGCTAAAGCTCG , no commentary.
[out] 3.03

[in] Return value of PBM binding z-score for input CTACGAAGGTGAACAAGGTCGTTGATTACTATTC , no commentary.
[out] 2.46

[in] Return value of PBM binding z-score for input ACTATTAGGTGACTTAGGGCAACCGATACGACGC , no commentary.
[out] 0.9

[in] Return value of PBM binding z-score for input CGTCCACGGTCAGAGAGGTCAGTGAATGCCGAGT , no commentary.
[out] 2.83

[in] Return value of PBM binding z-score for input CCCACTGGGGCATAAGGTTACCATAAGCCAGCCC , no commentary.
[out] 1.07

[in] Return value of PBM binding z-score for input ACTTACGGGACAACGAGGTTATAGCACGCGTATA , no commentary.
[out] 0.933

[in] Return value of PBM binding z-score for input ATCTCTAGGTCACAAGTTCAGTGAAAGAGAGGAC , no commentary.
[out] 3.86

[in] Return value of PBM binding z-score for input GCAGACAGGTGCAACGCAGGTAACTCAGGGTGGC , no commentary.
[out] 0.0404

[in] Return value of PBM binding z-score for input CAAACTAGTTCAAAGGTCAAAGTCGAGCCAACCA , no commentary.
[out] 8.58

[in] Return value of PBM binding z-score for input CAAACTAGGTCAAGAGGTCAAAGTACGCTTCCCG , no commentary.
[out] 7.37

[in] Return value of PBM binding z-score for input CTCGAAAGTTCGTGCTCAGGTGAGTATACCAAAC , no commentary.
[out] 1.64

[in] Return value of PBM binding z-score for input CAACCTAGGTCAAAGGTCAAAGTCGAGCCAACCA , no commentary.
[out] 8.88

[in] Return value of PBM binding z-score for input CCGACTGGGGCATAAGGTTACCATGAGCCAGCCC , no commentary.
[out] 1.16

[in] Return value of PBM binding z-score for input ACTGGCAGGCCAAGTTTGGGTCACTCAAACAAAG , no commentary.
[out] 1.4

[in] Return value of PBM binding z-score for input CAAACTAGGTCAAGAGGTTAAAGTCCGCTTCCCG , no commentary.
[out] 4.85

[in] Return value of PBM binding z-score for input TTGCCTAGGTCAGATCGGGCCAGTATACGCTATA , no commentary.
[out] 1.46

[in] Return value of PBM binding z-score for input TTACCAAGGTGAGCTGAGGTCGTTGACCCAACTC , no commentary.
[out] 2.57

[in] Return value of PBM binding z-score for input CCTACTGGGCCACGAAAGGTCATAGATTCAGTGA , no commentary.
[out] 5.39

[in] Return value of PBM binding z-score for input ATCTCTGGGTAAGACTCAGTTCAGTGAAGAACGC , no commentary.
[out] 0.0495

[in] Return value of PBM binding z-score for input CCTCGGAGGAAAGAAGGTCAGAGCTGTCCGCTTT , no commentary.
[out] 1.95

----------
# Tested on: RARa homodimer (NR concentration 270 nM)
# procedureText: PBM binding z-score (relative to random genomic background probes); higher = stronger binding; sequences stand for … in GC…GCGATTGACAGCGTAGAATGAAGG
observedProperty: PBM binding z-score

[in] Return value of PBM binding z-score for input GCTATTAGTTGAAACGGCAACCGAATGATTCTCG , no commentary.
[out] -0.177

[in] Return value of PBM binding z-score for input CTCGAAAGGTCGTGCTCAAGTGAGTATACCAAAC , no commentary.
[out] -0.14

[in] Return value of PBM binding z-score for input TCGAGTAGGTTACCAATGGGGTATTCAGCTTTCT , no commentary.
[out] -0.642

[in] Return value of PBM binding z-score for input TCATTTAGGTAATACAGGTGAAAGTCGGCATCTA , no commentary.
[out] 2.03

[in] Return value of PBM binding z-score for input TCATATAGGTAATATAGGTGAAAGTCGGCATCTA , no commentary.
[out] 0.799

[in] Return value of PBM binding z-score for input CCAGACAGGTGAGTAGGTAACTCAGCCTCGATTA , no commentary.
[out] 0.546

[in] Return value of PBM binding z-score for input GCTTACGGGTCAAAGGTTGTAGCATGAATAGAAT , no commentary.
[out] 0.364

[in] Return value of PBM binding z-score for input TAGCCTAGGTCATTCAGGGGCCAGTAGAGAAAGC , no commentary.
[out] 0.0247

[in] Return value of PBM binding z-score for input TCTATTAGATGATTAGGGCAACCGAAACAGCGGA , no commentary.
[out] 0.326

[in] Return value of PBM binding z-score for input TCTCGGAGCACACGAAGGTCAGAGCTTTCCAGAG , no commentary.
[out] -1.5

[in] Return value of PBM binding z-score for input GACACAGGGTCAAGGCCAGAGTACGCGTATTGAT , no commentary.
[out] 0.257

[in] Return value of PBM binding z-score for input CCTTACGGGACAAGGTTATAGCACGGGTGGTACG , no commentary.
[out] 0.441

[in] Return value of PBM binding z-score for input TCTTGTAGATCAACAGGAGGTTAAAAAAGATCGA , no commentary.
[out] 0.296

[in] Return value of PBM binding z-score for input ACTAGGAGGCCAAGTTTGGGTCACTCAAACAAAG , no commentary.
[out] 0.176

[in] Return value of PBM binding z-score for input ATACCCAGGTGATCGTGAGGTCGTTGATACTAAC , no commentary.
[out] -0.274

[in] Return value of PBM binding z-score for input ATCGAAAGGTCGTGAGGTGAGTATGCAGAAAGGC , no commentary.
[out] 0.592

[in] Return value of PBM binding z-score for input CGAACCAGGTCATCCAGGACAGTGAATACATTGA , no commentary.
[out] 1.01

[in] Return value of PBM binding z-score for input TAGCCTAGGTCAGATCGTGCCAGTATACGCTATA , no commentary.
[out] -0.542

[in] Return value of PBM binding z-score for input TCTCGGAGGAAACGAAGGTCAGAGCTTTCCAGAG , no commentary.
[out] -0.763

[in] Return value of PBM binding z-score for input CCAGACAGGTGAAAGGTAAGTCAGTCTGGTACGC , no commentary.
[out] 0.44

[in] Return value of PBM binding z-score for input CCAGACAGGTGAAAGGAAACTCAGTCTGGTACGC , no commentary.
[out] -0.148

[in] Return value of PBM binding z-score for input TCTCGGAGGACACGAAAGGTCAGCGCTCGACATC , no commentary.
[out] 1.84

[in] Return value of PBM binding z-score for input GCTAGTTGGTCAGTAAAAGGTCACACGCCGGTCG , no commentary.
[out] 1.93

[in] Return value of PBM binding z-score for input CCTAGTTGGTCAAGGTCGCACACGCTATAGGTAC , no commentary.
[out] 0.482

[in] Return value of PBM binding z-score for input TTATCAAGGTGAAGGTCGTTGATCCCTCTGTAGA , no commentary.
[out] -0.235

[in] Return value of PBM binding z-score for input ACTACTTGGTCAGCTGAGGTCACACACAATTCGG , no commentary.
[out] 0.831

[in] Return value of PBM binding z-score for input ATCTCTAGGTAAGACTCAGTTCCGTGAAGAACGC , no commentary.
[out] 0.872

[in] Return value of PBM binding z-score for input CCTACTGGGCCATTCAGACGTCATTGATCATATG , no commentary.
[out] -0.0635

[in] Return value of PBM binding z-score for input CGTCCAAGGTCAAGGTCAGTGATAGAGACTCGAA , no commentary.
[out] 2.41

[in] Return value of PBM binding z-score for input TCGAGTAGGTTAGGGGCATTCAGAATGGCGTCGA , no commentary.
[out] -0.19

[in] Return value of PBM binding z-score for input CCTGACGGGTCACTCCAGGTTATAGCATCGGAGT , no commentary.
[out] -0.12

[in] Return value of PBM binding z-score for input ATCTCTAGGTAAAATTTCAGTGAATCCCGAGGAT , no commentary.
[out] 0.744

[in] Return value of PBM binding z-score for input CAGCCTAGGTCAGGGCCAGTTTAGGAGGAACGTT , no commentary.
[out] -0.133

[in] Return value of PBM binding z-score for input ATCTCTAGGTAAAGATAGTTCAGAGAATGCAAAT , no commentary.
[out] 0.924

[in] Return value of PBM binding z-score for input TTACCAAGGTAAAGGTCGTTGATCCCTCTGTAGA , no commentary.
[out] -0.24

[in] Return value of PBM binding z-score for input GATTCAGGGTCAAGGCCAGAGTACGCGTATTGAT , no commentary.
[out] 0.724

[in] Return value of PBM binding z-score for input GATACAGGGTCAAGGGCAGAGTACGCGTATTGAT , no commentary.
[out] 0.496

[in] Return value of PBM binding z-score for input TCGGGTAGGTTACCAATGGGGCATTCAGCTTTCT , no commentary.
[out] 0.0772

[in] Return value of PBM binding z-score for input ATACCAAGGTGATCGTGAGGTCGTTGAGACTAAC , no commentary.
[out] 0.197

[in] Return value of PBM binding z-score for input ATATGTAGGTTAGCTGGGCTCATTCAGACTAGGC , no commentary.
[out] 0.493

[in] Return value of PBM binding z-score for input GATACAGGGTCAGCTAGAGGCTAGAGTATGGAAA , no commentary.
[out] 1.14

[in] Return value of PBM binding z-score for input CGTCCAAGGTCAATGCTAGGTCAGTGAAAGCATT , no commentary.
[out] 1.72

[in] Return value of PBM binding z-score for input GCTTGTAGATCAAGGTGAAGAAAGACTAAGCTAA , no commentary.
[out] -0.424

[in] Return value of PBM binding z-score for input TGAATGAGGTTATAAGATCAGGGACCGTTGCAAA , no commentary.
[out] -0.64

Just for reference, the supplement of paper PMC6555819 is where these values come from.
